target-or-test-system: T1, C-terminal GFP2-tagged β2-adrenergic receptor (β2-AR/GFP2) (human, UniProt P07550 1-413)
T1 construct: human β2-adrenergic receptor; not shown: GFP2, C-terminal, kept
assay-procedure: MST; lysate of HEK-293 cells with β2-AR/GFP2 kept constant as fluorescent target, P3 titrated in 1:1 dilutions, no agonist; MST buffer with 0.05% Tween 20, 25 °C; EC50 from bound fraction
experimental-setup: one partner purified
assay-readout: EC50 (µM)
Express the result in µM but write the number alone.

The recorded EC50 for entry EDTAVYYCNANWDLLSD (17 aa stretch of the nanobody Nb71 (amino acid residues 88-104, includes CDR3), picked by computational peptide scanning; numbers count on Nb71; source: synthetic peptide, custom-synthesized at Biomatik Corporation) [P3, nanobody-derived peptide (NDP) of Nb71] equals 58.2
